Molecular target: HMG-CoA reductase (HMGR) (Homo sapiens, UniProt P04035)
Sequence (P04035 426-888 limits assumed): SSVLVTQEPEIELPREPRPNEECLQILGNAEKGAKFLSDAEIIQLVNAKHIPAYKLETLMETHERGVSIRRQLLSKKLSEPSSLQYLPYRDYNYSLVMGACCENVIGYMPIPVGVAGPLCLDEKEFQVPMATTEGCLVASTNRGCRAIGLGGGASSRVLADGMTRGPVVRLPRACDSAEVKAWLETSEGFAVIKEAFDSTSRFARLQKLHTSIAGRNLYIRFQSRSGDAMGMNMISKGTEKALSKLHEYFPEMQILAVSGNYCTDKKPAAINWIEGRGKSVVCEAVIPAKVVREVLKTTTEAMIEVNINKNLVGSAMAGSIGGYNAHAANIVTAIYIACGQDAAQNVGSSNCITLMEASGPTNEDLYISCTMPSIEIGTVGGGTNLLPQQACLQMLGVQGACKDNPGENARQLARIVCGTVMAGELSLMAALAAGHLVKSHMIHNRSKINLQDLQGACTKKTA
Measured attribute: IC50 (µM)
API: value field is a number in µM; no unit string.

Before answering, review these 2 worked examples.
Molecule	Units	IC50
O=C(O[C@@H]1O[C@@H]2COC(=O)c3cc(Oc4c(C(=O)O)cc(O)c(O)c4O)c(O)c(O)c3-c3c(cc(O)c(O)c3O)C(=O)O[C@H]2[C@H](OC(=O)c2cc(O)c(O)c(O)c2)[C@H]1OC(=O)c1cc(O)c(O)c(O)c1)c1cc(O)c(O)c(O)c1	µM	12.2
COC(=O)c1cc(O)c(O)c(O)c1Oc1cc2c(c(O)c1O)-c1c(cc(O)c(O)c1O)C(=O)OC1C(COC2=O)OC(O)C(OC(=O)c2cc(O)c(O)c(O)c2)C1OC(=O)c1cc(O)c(O)c(O)c1 (centres unmarked)	µM	1.46

Note: attention shifts to another entry.
Reported IC50 ( O=C(O[C@@H]1O[C@@H]2COC(=O)c3cc(O)c(O)c(O)c3-c3c(cc(O)c(O)c3O)C(=O)O[C@H]2[C@H](OC(=O)c2cc(O)c(O)c(O)c2)[C@H]1OC(=O)c1cc(O)c(O)c(O)c1)c1cc(O)c(O)c(O)c1 ) = 26.7

* * *

experiment: DPPH radical scavenging assay; settings: read-out: Antioxidant Activity (IC50) DPPH; isolates and standards; mean ± SD, n = 3
Measured attribute: pIC50
In plain terms, pIC50 is the concentration in mol/L turned into minus its base-10 logarithm.

Recorded results for 4 compounds are shown here.
Compound	pIC50
O=C(O[C@@H]1O[C@@H]2COC(=O)c3cc(O)c(O)c(O)c3-c3c(cc(O)c(O)c3O)C(=O)O[C@H]2[C@H](OC(=O)c2cc(O)c(O)c(O)c2)[C@H]1OC(=O)c1cc(O)c(O)c(O)c1)c1cc(O)c(O)c(O)c1	5.36
O=C(OC1C(O)OC2COC(=O)c3cc(O)c(O)c(O)c3-c3c(cc(O)c(O)c3O)C(=O)OC2C1OC(=O)c1cc(O)c(O)c(O)c1)c1cc(O)c(O)c(O)c1 (centres unmarked)	5.33
Cc1c(C)c2c(c(C)c1O)CCC(C)(C(=O)O)O2 (centres unmarked) [Trolox, reference compound]	4.50
Oc1ccc(/C=C/c2cc(O)cc(O)c2)cc1 [Resveratrol, reference compound]	4.38

Consider the additional compound presented here.
pIC50 reported for this compound O=C(OC[C@H]1OC(O)[C@H](OC(=O)c2cc(O)c(O)c(O)c2)[C@@H](OC(=O)c2cc(O)c(O)c(O)c2)[C@@H]1OC(=O)c1cc(O)c(O)c(O)c1)c1cc(O)c(O)c(O)c1 (some centres unmarked) : 4.68
